target: T1, FcRn-p3 fusion protein (human, UniProt P55899 24-297; P61769 21-119); experiment: phage ELISA pH6 (est.)
T1 construct: baculovirus expressed; coated on ELISA wells; not shown: amino terminal part of bacteriophage p3 protein and CVDE protein
T1 sequence (P55899 24-297, chain 1 of 2): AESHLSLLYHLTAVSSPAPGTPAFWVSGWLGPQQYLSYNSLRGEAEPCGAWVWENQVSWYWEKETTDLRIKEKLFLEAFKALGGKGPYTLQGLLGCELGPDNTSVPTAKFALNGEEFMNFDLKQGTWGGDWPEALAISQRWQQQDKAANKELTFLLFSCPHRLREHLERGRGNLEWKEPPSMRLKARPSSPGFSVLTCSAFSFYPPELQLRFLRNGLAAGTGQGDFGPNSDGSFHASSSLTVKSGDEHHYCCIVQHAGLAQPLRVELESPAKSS
T1 sequence (P61769 21-119, chain 2 of 2): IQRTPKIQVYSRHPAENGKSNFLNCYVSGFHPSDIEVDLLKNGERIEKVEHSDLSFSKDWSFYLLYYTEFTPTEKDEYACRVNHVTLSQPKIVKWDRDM
Readout label: Ratio/Fc-WT (fold)
Value expressed in fold; do not type the unit.

QUERY: Fill in reported Ratio/Fc-WT for this entry: C6A_78B (other, EU numbering) CPLCPAPELLGGPSVFLFPPKPKDTLMISRNPEVTCVVVDVSHEDPEVKFNWYVDGVEVHNAKTKPREEQYNSTYRVVSVLTVLHQDWLNGKEYKCKVSNKALPAPIEKTISKAKGQPREPQVYTLPPSRDELTKNQVSLTCLVKGFYPSDIVVEWESNGQPENNYKTTPPVLDSDGSFFLYSKLTVDKSRWQQGNVFSCSVMHEALHYHYTQKSLSLSPGK
RESULT: 45.9

QUERY: Fill in reported Ratio/Fc-WT for this entry: T5A_81 (other, EU numbering) CPPCPAPELLGGPSVFLFPPKPKDTLMISRTPEVTCVVEDVSHEDPEVKFNWYVDGVEVHNAKTKPREEQYNSTYRVVSVLTVLHQDWLNGKEYKCKVSNKALPAPIEKTISKAKGQPREPQVYTLPPSRDELTKNQVSLTCLVKGFYPSDIVVEWESNGQPENNYKTTPPVLDSDGSFFLYSKLTVDKSKWQQGNVFSCSVMHEALHNHYTQKSLSLSPGK
RESULT: 14.9

QUERY: Fill in reported Ratio/Fc-WT for this entry: C6A_12 (other, EU numbering) CPPCTAPELLGGPSVFLFPPKPKDTLMISRTPEVTCVVVDVSHEDPEVKFNWYVDGVEVHNAKTKPREEQYNSTYRVVSVLTVLHQDWLDGKEYKCKVSNKALPAPIEKTISKAKGQPREPQVYTLPPSRDELTKNEVSLTCLVKGFYPSDIAVEWESNGQPENNYKTTPPVLDSDGSFFLYSKLTVDKSRWQQGNVFSCSVMHEALHYHYTQKSLSLSPGK
RESULT: 14.9

QUERY: Fill in reported Ratio/Fc-WT for this entry: T5A_74C (other, EU numbering) CPLCPAPELLGGPSVFLFPPKPKDTLMISRTPEVTCVVVDVSHEDPEVKFNWYVDGVEVHNAKTKPREEQYNSTYRVVSVLTVLHQDWLDGKEYKCKVSNKALPVPIEKTISKAKGQPREPQVYTLPPSRDELTKDQVSLTCLVKGFYPSDIVVEWESNGQPENNYKTTPPVLDSDGSFFLYSKLTVDKSRWQQGNVFSCSVMHEALHYHYTQKSLSLSPGK
RESULT: 24

QUERY: Fill in reported Ratio/Fc-WT for this entry: T5A_74D (other, EU numbering) CPRCPAPELLGGPSVFLFPPKPKDTLMISRTPEVTCVVVDVSHEDPEVKFNWYVDGVEVHNAKTKPREEQYNSTYRVVSVLTVLHQDWLDGKEYKCKVSNKALPVPIEKTISKAKGQPREPQVYTLPPSRDELTKDQVSLTCLVKGFYPSDIVVEWESNGQPENNYKTTPPVLDSDGSFFLYSKLTVDKSRWQQGNVFSCSVMHEALHYHYTQKSLSLSPGK
RESULT: 83.1

QUERY: Fill in reported Ratio/Fc-WT for this entry: C8A_15 (other, EU numbering) CPPCPAPELLGGPSVFLFPPKPKDTLMISRTPEVTCVVVDVSHEDPEVKFNWYVDGVEVHNAKTKPREEQYNSTYRVVSVLTVLHQDWLDGKEYKCKVSNKVLPVPIEKTISKAKGQPREPQVYTLPPSRDELTKNQVSLTCLVKGFYPSDIAVEWESNGQPENNYKTTPPMLDSDGSFFLYSKLTVDKSRWQQGNVFSCSVMHEALHYHYTQKSLSLSPGK
RESULT: 23.7

QUERY: Fill in reported Ratio/Fc-WT for this entry: C5A_39 (other, EU numbering) CPPCPAPELLGGPSVFLFPPKPKDTLMISRTPEVTCVVVDVSHEDPEVKFNWYVDGVEVHNAKTEPREEQYNSTYRVVSVLTVLHQDWLDGKEYKCKVSNKALPAPIEKTISKAKGRPREPQVYTLPPSRDELTKNQVSLTCLVKGFYPSDIAVEWVSNGQPENNYKTTPPVLDSDGSFFLYSKLTVDKSRWQQGNVFSCSVMHEALHYHYTQKSLSLSPGK
RESULT: 15.9

QUERY: Fill in reported Ratio/Fc-WT for this entry: T5A_74F (other, EU numbering) CPRCSAPELLGGPSVFLFPPKPKDTLMISRTPEVTCVVVDVSHEDPEVKFNWYVDGVEVHNAKTKPREEQYNSTYRVVSVLTVLHQDWLDGKEYKCKVSNKALPVPIEKTISKAKGQPREPQVYTLPPSRDELTKDQVSLTCLVKGFYPSDIVVEWESNGQPENNYKTTPPVLDSDGSFFLYSKLTVDKSRWQQGNVFSCSVMHEALHYHYTQKSLSLSPGK
RESULT: 53.8

QUERY: Fill in reported Ratio/Fc-WT for this entry: T5A_93 (other, EU numbering) CPPCPAPELLGGPSVFLFPPKPKDTLMISRTPEVTCVVVDVSHEDPEVKFNWYVDGVEVHNAKTKPREEQYNSTYRVVSALTVLHQDWLDGKEYKCKVSNKALPVPIEKTISKAKGQPREPQVYTLPPSRDELTKNQVSLTCLVKGFYPSDIAVEWESNGQPENNYKTTAPVLDSDGSFFLYSKLTVDKSRWQQGNVFSCSVMHEALHYHYTQKSLSLSPGK
RESULT: 25.7

QUERY: Fill in reported Ratio/Fc-WT for this entry: C6A_85 (other, EU numbering) CPPCPAPELLGGPSVFLFPPKPKDTLMISRTPEVTCVVVDVSHEDPEVKFNWYVDGVEVHNAKTKPREEQYNSTYRVVSALTVLHQDWLDGKEYKCKVSNKALPVPIEKTISKAKGQPREPQVYTLPPSRDELTKNQVSLTCLVKGFYPSDIAVEWESNGQPEKNYKTTPPVLDSDGSFFLYSKLTVDKSRWQQGNVFSCSVMHEALHYHYTQKSLSLSPGK
RESULT: 23.8
